# System: ESS-1 (Other Solid Carcinomas)
# ASSAY DETAILS: Bliss excess, mean over the matrix (fraction); higher = more synergy
Readings of Bliss excess for the listed compounds

COMPOUND: CCc1c2c(nc3ccc(O)cc13)-c1cc3c(c(=O)n1C2)COC(=O)[C@]3(O)CC [SN-38] + CN(C)CCCOc1ccc(-c2ccc3ncc4c(c3c2)n(C2CCOCC2)c(=O)n4C)cn1 [AZD0156] (first compound max 0.3 µM, 7x7, partner max 1 µM)
STUDY TARGET: ESS-1 (Other Solid Carcinomas)
Bliss excess: 0.0109
//
COMPOUND: C[C@@H](Nc1cc(F)cc(F)c1)c1cc(C(=O)N(C)C)cc2c(=O)cc(N3CCOCC3)oc12 [AZD8186] + CC(=O)c1c(C)c2cnc(Nc3ccc(N4CCNCC4)cn3)nc2n(C2CCCC2)c1=O [Palbociclib] (first compound max 10 µM, 7x7, partner max 10 µM)
STUDY TARGET: ESS-1 (Other Solid Carcinomas)
Bliss excess: -0.0114
//
COMPOUND: Cn1cnc2c(F)c(Nc3ccc(Br)cc3Cl)c(C(=O)NOCCO)cc21 [Selumetinib] + C[C@@H]1COCCN1C2=NC(=NC(=C2)C3(CC3)[S@](=N)(=O)C)C4=C5C=CNC5=NC=C4 [AZD6738] (first compound max 10 µM, 7x7, partner max 10 µM)
STUDY TARGET: ESS-1 (Other Solid Carcinomas)
Bliss excess: 0.024
//
COMPOUND: CC1(C)CCC(CN2CCN(c3ccc(C(=O)NS(=O)(=O)c4ccc(NCC5CCOCC5)c([N+](=O)[O-])c4)c(Oc4cnc5[nH]ccc5c4)c3)CC2)=C(c2ccc(Cl)cc2)C1 [Venetoclax] + CN(C)CCCOc1ccc(-c2ccc3ncc4c(c3c2)n(C2CCOCC2)c(=O)n4C)cn1 [AZD0156] (first compound max 1 µM, 7x7, partner max 1 µM)
STUDY TARGET: ESS-1 (Other Solid Carcinomas)
Bliss excess: -0.0515

* * *

# Tested on: KYAE-1 (Esophageal Adenocarcinoma)
# ASSAY DETAILS: Bliss excess, mean over the matrix (fraction); higher = more synergy

MOLECULE: Cc1c2c(nn1C)CSCc1cc(n(C)n1)CSc1cc(c3ccccc3c1)OCCCc1c(C(=O)O)n(C)c3c-2c(Cl)ccc13 [AZD5991] + Cc1cc2ncnn2cc1Nc1ncc2c(n1)n(C1CCOCC1)c(=O)n2C [AZD7648] (first compound max 1 µM, 7x7, partner max 10 µM)
STUDY TARGET: KYAE-1 (Esophageal Adenocarcinoma)
Bliss excess: -0.0285
//
MOLECULE: CN(C)CCCOc1ccc(-c2ccc3ncc4c(c3c2)n(C2CCOCC2)c(=O)n4C)cn1 [AZD0156] + O=C(c1cc(Cc2n[nH]c(=O)c3ccccc23)ccc1F)N1CCN(C(=O)C2CC2)CC1 [Olaparib] (first compound max 3 µM, partner max 3 µM)
STUDY TARGET: KYAE-1 (Esophageal Adenocarcinoma)
Bliss excess: 0.0247
//
MOLECULE: CS(=O)(=O)CCNCc1ccc(-c2ccc3ncnc(Nc4ccc(OCc5cccc(F)c5)c(Cl)c4)c3c2)o1 [Lapatinib] + C[C@@H](Oc1cc(-c2cnn(C3CCNCC3)c2)cnc1N)c1c(Cl)ccc(F)c1Cl [Crizotinib] (first compound max 10 µM, 7x7, partner max 10 µM)
STUDY TARGET: KYAE-1 (Esophageal Adenocarcinoma)
Bliss excess: -0.0171
//
MOLECULE: Cc1cc2ncnn2cc1Nc1ncc2c(n1)n(C1CCOCC1)c(=O)n2C [AZD7648] + C[C@@H]1COCCN1C2=NC(=NC(=C2)C3(CC3)[S@](=N)(=O)C)C4=C5C=CNC5=NC=C4 [AZD6738] (first compound max 10 µM, 7x7, partner max 10 µM)
STUDY TARGET: KYAE-1 (Esophageal Adenocarcinoma)
Bliss excess: 0.0399
//
MOLECULE: CN(CCO)CC[C@H](CSc1ccccc1)Nc1ccc(S(=O)(=O)NC(=O)c2ccc(N3CCC([C@@H](O)c4ccccc4-c4ccc(Cl)cc4)CC3)cc2)cc1S(=O)(=O)C(F)(F)F [AZD4320] + C[C@@H](Nc1cc(F)cc(F)c1)c1cc(C(=O)N(C)C)cc2c(=O)cc(N3CCOCC3)oc12 [AZD8186] (first compound max 1 µM, 7x7, partner max 3 µM)
STUDY TARGET: KYAE-1 (Esophageal Adenocarcinoma)
Bliss excess: 0.011
//
MOLECULE: CC(=O)c1c(C)c2cnc(Nc3ccc(N4CCNCC4)cn3)nc2n(C2CCCC2)c1=O [Palbociclib] + Cc1c2c(nn1C)CSCc1cc(n(C)n1)CSc1cc(c3ccccc3c1)OCCCc1c(C(=O)O)n(C)c3c-2c(Cl)ccc13 [AZD5991] (first compound max 10 µM, 7x7, partner max 1 µM)
STUDY TARGET: KYAE-1 (Esophageal Adenocarcinoma)
Bliss excess: 0.0035
//
MOLECULE: Cc1cc2ncnn2cc1Nc1ncc2c(n1)n(C1CCOCC1)c(=O)n2C [AZD7648] + C=CCn1c(=O)c2cnc(Nc3ccc(N4CCN(C)CC4)cc3)nc2n1-c1cccc(C(C)(C)O)n1 [AZD1775] (first compound max 10 µM, partner max 1 µM)
STUDY TARGET: KYAE-1 (Esophageal Adenocarcinoma)
Bliss excess: -0.048
//
MOLECULE: O=C(c1cc(Cc2n[nH]c(=O)c3ccccc23)ccc1F)N1CCN(C(=O)C2CC2)CC1 [Olaparib] + CN(CC[C@H](CSC1=CC=CC=C1)NC2=C(C=C(C=C2)S(=O)(=O)NC(=O)C3=CC=C(C=C3)N4CCC(CC4)[C@H](C5=CC=CC=C5C6=CC=C(C=C6)Cl)O)S(=O)(=O)C(F)(F)F)CCO [AZD4320] (first compound max 10 µM, 7x7, partner max 1 µM)
STUDY TARGET: KYAE-1 (Esophageal Adenocarcinoma)
Bliss excess: 0.0363
//
MOLECULE: C[C@@H]1COCCN1c1cc(C2([S@](C)(=N)=O)CC2)nc(-c2ccnc3[nH]ccc23)n1 [AZD6738] + Nc1ccn([C@@H]2O[C@H](CO)[C@@H](O)C2(F)F)c(=O)n1 [Gemcitabine] (first compound max 10 µM, 7x7, partner max 0.3 µM)
STUDY TARGET: KYAE-1 (Esophageal Adenocarcinoma)
Bliss excess: -0.0077
//
MOLECULE: C=CCn1c(=O)c2cnc(Nc3ccc(N4CCN(C)CC4)cc3)nc2n1-c1cccc(C(C)(C)O)n1 [AZD1775] + CCc1c2c(nc3ccc(O)cc13)-c1cc3c(c(=O)n1C2)COC(=O)[C@]3(O)CC [SN-38] (first compound max 1 µM, partner max 0.3 µM)
STUDY TARGET: KYAE-1 (Esophageal Adenocarcinoma)
Bliss excess: -0.0013
//
MOLECULE: N#Cc1cnc(Nc2cc(NC[C@H]3CNCCO3)c(C(F)(F)F)cn2)cn1 [SRA737] + C=CCn1c(=O)c2cnc(Nc3ccc(N4CCN(C)CC4)cc3)nc2n1-c1cccc(C(C)(C)O)n1 [AZD1775] (first compound max 10 µM, partner max 1 µM)
STUDY TARGET: KYAE-1 (Esophageal Adenocarcinoma)
Bliss excess: 0.0021
//
MOLECULE: CN(CCO)CC[C@H](CSc1ccccc1)Nc1ccc(S(=O)(=O)NC(=O)c2ccc(N3CCC([C@@H](O)c4ccccc4-c4ccc(Cl)cc4)CC3)cc2)cc1S(=O)(=O)C(F)(F)F [AZD4320] + CCN(CCO)CCCOc1ccc2c(Nc3cc(CC(=O)Nc4cccc(F)c4)[nH]n3)ncnc2c1 [AZD2811] (first compound max 1 µM, 7x7, partner max 1 µM)
STUDY TARGET: KYAE-1 (Esophageal Adenocarcinoma)
Bliss excess: -0.0149
//
MOLECULE: CCN(CCO)CCCOc1ccc2c(Nc3cc(CC(=O)Nc4cccc(F)c4)[nH]n3)ncnc2c1 [AZD2811] + C[C@@H]1COCCN1C2=NC(=NC(=C2)C3(CC3)[S@](=N)(=O)C)C4=C5C=CNC5=NC=C4 [AZD6738] (first compound max 1 µM, 7x7, partner max 10 µM)
STUDY TARGET: KYAE-1 (Esophageal Adenocarcinoma)
Bliss excess: -0.0234

* * *

# Test system: CAL-72 (Osteosarcoma)
# ASSAY DETAILS: combination Emax (second highest fraction inhibited in the dose matrix, 72 h); higher = more inhibition; extreme values may be limits of the assay

MOLECULE: COc1cccc(OCCCN)c1-c1cc(Nc2cnc(C#N)cn2)n[nH]1 [Prexasertib] + CN(C)CCCOc1ccc(-c2ccc3ncc4c(c3c2)n(C2CCOCC2)c(=O)n4C)cn1 [AZD0156] (first compound max 1 µM, 7x7, partner max 1 µM)
STUDY TARGET: CAL-72 (Osteosarcoma)
combination Emax: 0.847
//
MOLECULE: CC1(C)CCC(CN2CCN(c3ccc(C(=O)NS(=O)(=O)c4ccc(NCC5CCOCC5)c([N+](=O)[O-])c4)c(Oc4cnc5[nH]ccc5c4)c3)CC2)=C(c2ccc(Cl)cc2)C1 [Venetoclax] + CN(C)CCCOc1ccc(-c2ccc3ncc4c(c3c2)n(C2CCOCC2)c(=O)n4C)cn1 [AZD0156] (first compound max 1 µM, 7x7, partner max 1 µM)
STUDY TARGET: CAL-72 (Osteosarcoma)
combination Emax: 0.687
//
MOLECULE: CN(C)CCCOc1ccc(-c2ccc3ncc4c(c3c2)n(C2CCOCC2)c(=O)n4C)cn1 [AZD0156] + O=C(c1cc(Cc2n[nH]c(=O)c3ccccc23)ccc1F)N1CCN(C(=O)C2CC2)CC1 [Olaparib] (first compound max 3 µM, partner max 3 µM)
STUDY TARGET: CAL-72 (Osteosarcoma)
combination Emax: 0.416
//
MOLECULE: Cc1c2c(nn1C)CSCc1cc(n(C)n1)CSc1cc(c3ccccc3c1)OCCCc1c(C(=O)O)n(C)c3c-2c(Cl)ccc13 [AZD5991] + C[C@@H]1COCCN1C2=NC(=NC(=C2)C3(CC3)[S@](=N)(=O)C)C4=C5C=CNC5=NC=C4 [AZD6738] (first compound max 1 µM, 7x7, partner max 10 µM)
STUDY TARGET: CAL-72 (Osteosarcoma)
combination Emax: 0.832

This collection of values is drawn from the supplement of paper PMC11061612.
